Listed binders paired with reported kon
target: cynomolgus monkey DLL4 extracellular domain (cynomolgus monkey); assay: Biacore SPR
Note: unit M⁻¹ s⁻¹ is implicit; provide only the numeric part.

Here's what some known entries look like.
{"BINDER": "h1A11.H2 (antibody, V domains shown) VH: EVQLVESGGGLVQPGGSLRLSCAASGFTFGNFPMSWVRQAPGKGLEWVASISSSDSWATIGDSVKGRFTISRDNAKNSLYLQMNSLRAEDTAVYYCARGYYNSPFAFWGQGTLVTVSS VL: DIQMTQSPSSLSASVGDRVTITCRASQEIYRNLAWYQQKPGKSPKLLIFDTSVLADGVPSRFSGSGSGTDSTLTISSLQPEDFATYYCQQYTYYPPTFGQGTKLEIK", "TEST VALUE": 131000}
{"BINDER": "1A11 rat monoclonal antibody (antibody, V domains shown) VH: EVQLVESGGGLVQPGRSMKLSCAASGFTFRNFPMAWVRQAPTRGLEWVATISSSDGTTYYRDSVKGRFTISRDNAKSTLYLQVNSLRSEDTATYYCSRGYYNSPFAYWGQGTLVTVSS VL: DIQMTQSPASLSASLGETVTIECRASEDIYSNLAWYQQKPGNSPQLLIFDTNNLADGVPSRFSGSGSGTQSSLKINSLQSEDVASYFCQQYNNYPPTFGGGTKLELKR", "TEST VALUE": 110000}

The reported value for 38H12 rat monoclonal antibody (antibody, V domains shown) VH: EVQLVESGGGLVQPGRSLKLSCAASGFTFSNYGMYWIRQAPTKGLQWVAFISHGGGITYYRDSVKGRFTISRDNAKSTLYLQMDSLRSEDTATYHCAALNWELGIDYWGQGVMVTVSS VL: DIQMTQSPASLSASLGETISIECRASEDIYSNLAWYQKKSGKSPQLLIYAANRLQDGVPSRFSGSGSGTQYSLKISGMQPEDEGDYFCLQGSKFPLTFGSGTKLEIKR in terms of kon is 260000

The reported value for h1A11.B5 (antibody, V domains shown) VH: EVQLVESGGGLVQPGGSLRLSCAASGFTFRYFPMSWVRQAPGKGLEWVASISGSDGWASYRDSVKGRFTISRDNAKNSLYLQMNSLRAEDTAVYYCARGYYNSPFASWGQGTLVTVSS VL: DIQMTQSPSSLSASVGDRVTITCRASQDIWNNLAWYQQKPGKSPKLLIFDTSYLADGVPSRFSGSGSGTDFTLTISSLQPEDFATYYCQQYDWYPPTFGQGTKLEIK in terms of kon is 117000

The reported value for h1A11.F5 (antibody, V domains shown) VH: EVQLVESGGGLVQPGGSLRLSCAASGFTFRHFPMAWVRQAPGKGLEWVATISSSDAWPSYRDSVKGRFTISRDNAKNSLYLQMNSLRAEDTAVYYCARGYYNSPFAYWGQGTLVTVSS VL: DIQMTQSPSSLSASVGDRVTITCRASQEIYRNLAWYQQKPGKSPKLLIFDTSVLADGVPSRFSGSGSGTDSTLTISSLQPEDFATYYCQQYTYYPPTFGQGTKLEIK in terms of kon is 118000
